Recorded values, source paper PMC12254266.

Parameter pKd: see the listing below.
# SYSTEM: Nluc-FFA1 (Homo sapiens, UniProt O14842)
# Construct: expressed in transfected cells
# Sequence (O14842 whole entry): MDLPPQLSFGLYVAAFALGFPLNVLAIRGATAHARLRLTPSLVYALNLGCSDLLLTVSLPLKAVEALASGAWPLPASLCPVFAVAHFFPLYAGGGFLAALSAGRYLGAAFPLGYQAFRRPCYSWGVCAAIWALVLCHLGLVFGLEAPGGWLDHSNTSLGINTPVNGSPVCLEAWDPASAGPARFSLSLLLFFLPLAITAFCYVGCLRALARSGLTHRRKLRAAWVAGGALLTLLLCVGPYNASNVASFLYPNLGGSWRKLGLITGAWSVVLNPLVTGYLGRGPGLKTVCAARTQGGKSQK
# EXPERIMENT SUMMARY: NanoBRET binding (saturation, competition, kinetics) at N terminal Nluc tagged FFA1
# RECORDED CONDITIONS: Nluc-FFA1; read-out: Kd Nano-BRET Multiple Concentration (kinetic)
// pKd here means minus log10 of the molar concentration (mol/L)

COc1ccc(C(=O)N(CC(C)(C)CNc2ccc([N+](=O)[O-])c3nonc23)c2cccc(C)n2)c(N2CCC(COc3cccc(C(CC(=O)O)C4CC4)c3)CC2)c1.O=C(O)C(F)(F)F (centres unmarked)    6.27

Shift focus to the following entry.
Field request: pKd | item: `Cc1cc(OCCCNC(=O)CCCN2\C(=C/C=C/C=C/C3=[N+](C)c4ccc(S(=O)(=O)[O-])cc4C3(C)C)C(C)(C)c3ccccc32)ccc1-c1cccc(COc2ccc(CCC(=O)O)c(F)c2)c1`
6.77

###

# reported pEC50; entries follow
# SYSTEM: FFA1 (Homo sapiens, UniProt O14842)
# Sequence (O14842 whole entry): as above
# EXPERIMENT SUMMARY: Ca2+ mobilisation (Fura2) in Flp-In T-REx 293 cells expressing Nluc-FFA1, FFA1-Nluc or untagged FFA1
# Type: cell-based
# Parameters: expressed in transfected cells
# RECORDED CONDITIONS: Ca2+ data, mean±SEM; NR = No response
Please respond with just the number, no unit label.

COc1ccc(C(=O)N(CC(C)(C)CNC(=O)OC(C)(C)C)c2ccccc2)c(N2CCC(COc3cccc(C(CC(=O)O)C4CC4)c3)CC2)c1.O=C(O)C(F)(F)F (stereo not shown)    6.78
Cc1cc(OCCOCCNC(=O)CCCCCN2\C(=C/C=C/C=C/C3=[N+](C)c4ccc(S(=O)(=O)[O-])cc4C3(C)C)C(C)(C)c3ccccc32)ccc1-c1cccc(COc2ccc(CCC(=O)O)c(F)c2)c1    5.43

The record that follows has no pEC50 shown yet.
Could you tell me which pEC50 is on file for `Cc1cc(OCCCNC(=O)CCCN2\C(=C/C=C/C=C/C3=[N+](C)c4ccc(S(=O)(=O)[O-])cc4C3(C)C)C(C)(C)c3ccccc32)ccc1-c1cccc(COc2ccc(CCC(=O)O)c(F)c2)c1` ?
6.47

###

# SYSTEM: FFA1-Nluc (Homo sapiens)
# EXPERIMENT SUMMARY: DISCo-BRET (endpoint, spectra scan, kinetics) with TUG-2591 and TUG-2597 at C terminal Nluc tagged FFA1
# Type: binding
# Parameters: expressed in transfected cells
# RECORDED CONDITIONS: percentage of binding obtained in the absence of competing ligand
Let's look at some compounds and their measured 'bottom' of the IC50 curve, DISCo-BRET NBD/Nluc.
Quick reminder: number only, in %, skip the unit.

Worked cases, 'bottom' of the IC50 curve, DISCo-BRET NBD/Nluc given:
COc1ccc(C(=O)N(CC(C)(C)C)c2cccc(C)n2)c(N2CCC(COc3cccc(C(CC(=O)O)C4CC4)c3)CC2)c1.O=C(O)C(F)(F)F (stereo not shown) [Cpd 6h, reference compound]    9.3
COc1ccc(CCCC(C)(C)C)c(N2CCC(COc3cccc(C(CC(=O)O)C4CC4)c3)CC2)c1.O=C(O)C(F)(F)F (stereo not shown)    2.7
CCCN1C(=O)c2ccccc2[C@@H](C(=O)O)[C@@H]1c1ccc(OCc2cccc(C(F)(F)F)c2)cc1    10

Turning now to a further record.
Value lookup for 'bottom' of the IC50 curve, DISCo-BRET NBD/Nluc; key = `Cc1cc(OCCCS(C)(=O)=O)cc(C)c1-c1cccc(COc2ccc3c(c2)OC[C@H]3CC(=O)O)c1`
360

###

# SYSTEM: FFA1-Nluc (Homo sapiens, UniProt O14842)
# Sequence (O14842 whole entry): as above
# EXPERIMENT SUMMARY: DISCo-BRET (endpoint, spectra scan, kinetics) with TUG-2591 and TUG-2597 at C terminal Nluc tagged FFA1
# Assay type: binding
# Set-up: expressed in transfected cells
# RECORDED CONDITIONS: FFA1-Nluc, […] TUG-2597; read-out: Kd, DISCo-BRET saturation SulfoCy5/NBD (Sup Fig 3Biii)
PARAMETER: Kd (µM)
Quick note: give the figure in µM, leave out the unit.

Dear colleague, I am looking for the recorded Kd of the following compound: `Cc1cc(OCCCNC(=O)CCCN2\C(=C/C=C/C=C/C3=[N+](C)c4ccc(S(=O)(=O)[O-])cc4C3(C)C)C(C)(C)c3ccccc32)ccc1-c1cccc(COc2ccc(CCC(=O)O)c(F)c2)c1`
0.064

###

# SYSTEM: Nluc-FFA1 (Homo sapiens)
# Construct: expressed in transfected cells
# EXPERIMENT SUMMARY: NanoBRET binding (saturation, competition, kinetics) at N terminal Nluc tagged FFA1
# RECORDED CONDITIONS: using either Nluc location (N or C terminal); read-out: Kd, saturation NanoBRET
pKd: −log10 of the molar value.
PARAMETER: pKd

Request - read-out pKd | tested on Nluc-FFA1 (Homo sapiens) | compound COc1ccc(C(=O)N(CC(C)(C)CNc2ccc([N+](=O)[O-])c3nonc23)c2cccc(C)n2)c(N2CCC(COc3cccc(C(CC(=O)O)C4CC4)c3)CC2)c1.O=C(O)C(F)(F)F (stereo not shown)
6.36 to 6.46

###

# SYSTEM: FFA1-Nluc (Homo sapiens)
# EXPERIMENT SUMMARY: DISCo-BRET (endpoint, spectra scan, kinetics) with TUG-2591 and TUG-2597 at C terminal Nluc tagged FFA1
# Type: binding
# Design: expressed in transfected cells
# RECORDED CONDITIONS: TUG-2591 added after TUG-2597; read-out: Kd DISCo-BRET Single Concentration (kinetic)
PARAMETER: Kd (nM)
Number in nM, nothing else.

Form field: Kd recorded for `Cc1cc(OCCCNC(=O)CCCN2\C(=C/C=C/C=C/C3=[N+](C)c4ccc(S(=O)(=O)[O-])cc4C3(C)C)C(C)(C)c3ccccc32)ccc1-c1cccc(COc2ccc(CCC(=O)O)c(F)c2)c1` with FFA1-Nluc (Homo sapiens) (enter value)
91

###

# SYSTEM: FFA1 (Homo sapiens)
# EXPERIMENT SUMMARY: NanoBiT arrestin-3 recruitment in HEK293T cells
# Type: cell-based
# Design: expressed in transfected cells; host or cells: HEK293T, transient
# RECORDED CONDITIONS: ± SEM, N=3
PARAMETER: pEC50 arrestin-3 recruitment
Could you respond with only the numeric value?

Consider the following illustrative entries.
COc1ccc(CCCC(C)(C)C)c(N2CCC(COc3cccc(C(CC(=O)O)C4CC4)c3)CC2)c1.O=C(O)C(F)(F)F (stereo not shown) [T360]    8.9
COc1ccc(C(=O)N(CC(C)(C)CNc2ccc([N+](=O)[O-])c3nonc23)c2cccc(C)n2)c(N2CCC(COc3cccc(C(CC(=O)O)C4CC4)c3)CC2)c1.O=C(O)C(F)(F)F (stereo not shown) [TUG-2597]    8.5
COc1ccc(C(=O)N(CC(C)(C)C)c2cccc(C)n2)c(N2CCC(COc3cccc(C(CC(=O)O)C4CC4)c3)CC2)c1.O=C(O)C(F)(F)F (stereo not shown) [Cpd 6h, reference compound]    9.1

What does the data say about its pEC50 arrestin-3 recruitment? Entry: Cc1cc(OCCCNC(=O)CCCN2\C(=C/C=C/C=C/C3=[N+](C)c4ccc(S(=O)(=O)[O-])cc4C3(C)C)C(C)(C)c3ccccc32)ccc1-c1cccc(COc2ccc(CCC(=O)O)c(F)c2)c1 [TUG-2591]
7.5

###

# SYSTEM: FFA1-Nluc (Homo sapiens, UniProt O14842)
# EXPERIMENT SUMMARY: DISCo-BRET (endpoint, spectra scan, kinetics) with TUG-2591 and TUG-2597 at C terminal Nluc tagged FFA1
# Format: binding
# Set-up: expressed in transfected cells
# RECORDED CONDITIONS: 100 nM TUG-2591 and […] TUG-2597; one site model; NC = No competition
PARAMETER: pIC50 DISCo-BRET SulfoCy5/NBD
Reply with the value as a number alone.

The cases that follow already have their pIC50 DISCo-BRET SulfoCy5/NBD on record.
CCCN1C(=O)c2ccccc2[C@@H](C(=O)O)[C@@H]1c1ccc(OCc2cccc(-c3ccc(OCCCS(C)(=O)=O)cc3C)c2)cc1 (racemic)    6.0
COc1ccc(CCCC(C)(C)C)c(N2CCC(COc3cccc(C(CC(=O)O)C4CC4)c3)CC2)c1.O=C(O)C(F)(F)F (stereo not drawn)    7.6

Sample CCCN1C(=O)c2ccccc2[C@@H](C(=O)O)[C@@H]1c1ccc(OCc2cccc(-c3ccc(OCCOCCNC(=O)OC(C)(C)C)cc3C)c2)cc1 (racemic) — what was its pIC50 DISCo-BRET SulfoCy5/NBD?
6.2

Any idea what its pIC50 DISCo-BRET SulfoCy5/NBD is? The compound is `CCCN1C(=O)c2ccccc2[C@@H](C(=O)O)[C@@H]1c1ccc(OCc2cccc(C(F)(F)F)c2)cc1`
6.0

What does the record list as pIC50 DISCo-BRET SulfoCy5/NBD for COc1ccc(C(=O)N(CC(C)(C)C)c2cccc(C)n2)c(N2CCC(COc3cccc(C(CC(=O)O)C4CC4)c3)CC2)c1.O=C(O)C(F)(F)F (stereo not drawn) [Cpd 6h, reference compound] ?
7.4
